Cited source for all entries: patent US20200038513A1

test: Pharmacokinetics of intraperitoneal or intravenous injection in CD1 mice; type: in vivo; conditions: male, CD1, mouse, plasma, ip, 10 mg/kg, IP 10 mg/kg, CD1 mice plasma, 0.5 h; read-out: Mean
Collected concentration at 0.5 h values appear next to each entry.

{"compound": "Cc1ncsc1-c1ccc(CNC(=O)[C@@H]2C[C@@H](O)CN2C(=O)[C@@H](NC(=O)CCOCCCOc2ccc(Nc3ncc(C(F)(F)F)c(NCc4cccc(N(C)S(C)(=O)=O)c4)n3)cc2)C(C)(C)C)cc1 [Compound 103]", "concentration at 0.5 h": "696 ng/mL"}
{"compound": "Cc1ncsc1-c1ccc(CNC(=O)[C@@H]2C[C@@H](O)CN2C(=O)[C@@H](NC(=O)COCCOc2ccc(Nc3ncc(C(F)(F)F)c(NCc4cccc(N(C)S(C)(=O)=O)c4)n3)cc2)C(C)(C)C)cc1 [Compound 100]", "concentration at 0.5 h": "401 ng/mL"}
